target: Ubiquitin carboxyl-terminal hydrolase isozyme L1 (Homo sapiens); assay: biochemical concentration-response of UCH-L1 DUB inhibitors, hit verification (AID 1645867); conditions: recombinant UCHL1 deubiquitinase activity assay
Activity calls are given as the source filed them. How the calls were made is not given here.
# IC50 per entry

Reference set (5 entries):
compound	IC50
COc1cccc(C(CC(=O)Nc2ccc3c(c2)OCCO3)n2cccc2)c1 (stereo not drawn)	> 25 µM (inactive)
CC[C@@H](C(=O)[C@@H](C)[C@@H](O)[C@H](C)CCc1ccc(C)c(O)c1C(=O)O)[C@@H]1O[C@](CC)([C@H]2CC[C@](O)(CC)[C@H](C)O2)C[C@@H]1C	> 25 µM (inactive)
O=c1c2cc(Br)ccc2[nH]c(=S)n1Cc1cccnc1	> 25 µM (inactive)
CC(C)C(=O)Nc1nc2cc(NS(=O)(=O)c3ccccc3)ccc2s1	> 25 µM (inactive)
O=C(Nc1ccccc1-c1nc2ccccc2[nH]1)c1sc2ccccc2c1Cl	> 25 µM (inactive)

Value of measured IC50 for the entry O=c1cc(Cc2ccccc2)nc2c(-c3ccccc3)c(COc3ccccc3)[nH]n12 : > 25 µM (inactive)

// recorded IC50 for CCN1C(=O)c2ccccc2C(=O)[C@@]2(C)CN(C(=O)c3ccccc3)C[C@@H]12 : > 25 µM (inactive)

# IC50 (compound: CC[C@H](C)[C@H](NC(=O)[C@H]([C@@H](C)CC)N(C)C(C)=O)C(=O)N[C@H](C(=O)N[C@@H](CC(C)C)C(=O)C1(C)CO1)[C@@H](C)O (stereo partly drawn) ) is > 25 µM (inactive)

Just for reference, PubChem BioAssay AID1645867 is where these values come from.
